- Measurement notes: qHTS for Inhibitors of human tyrosyl-DNA phosphodiesterase 1 (TDP1): qHTS in cells in absence of CPT; further: nearly all actives have a fitted effect of over 55% in size
- Assay setup: DT40 Tdp1-/- hTDP1 cells, no CPT, ATP luminescence, 48 h
Screen size: about 420,000 compounds; about 64,000 (15%) were called active. Inconclusive results (about 27%) are left out. The call rests on the fitted dose curve; in most records, active means well fitted inhibition curve with a large enough effect; inconclusive means small, poorly fitted or top-dose-only effect; inactive means flat fitted curve, though single readings scatter. The list is a sample of the results.
Write down the outcome that applies. Available outcomes: active, inactive

{"columns": ["Compound", "Label"],
 "data": [
  ["CC(C)C(=O)Nc1cccc(NC(=O)c2ccc([N+](=O)[O-])cc2Cl)c1", "inactive"],
  ["O=C(COc1ccc(Cl)cc1)Nc1ccc2oc(=O)ccc2c1", "inactive"],
  ["CC1CCN(S(=O)(=O)c2ccc(S(=O)(=O)NCc3ccco3)cc2)CC1", "inactive"],
  ["Cc1cc(C)n2nc(C(=O)NC(C)(C)C)nc2n1", "inactive"]
]}

Ask | Returns: the outcome recorded for COc1ccccc1C(=O)NCC(=O)OCC(=O)NNC(=O)c1ccc(Br)cc1 in this assay.
Reply | inactive

Ask | Record request — test call for CN1CCN(CCNC(=O)Nc2ccc([N+](=O)[O-])cc2)CC1
Reply | inactive

Ask | Record request — test call for CN(CCOc1ccc(CC2SC(=O)NC2=O)cc1)c1ccccn1 (stereo unspecified)
Reply | inactive

Ask | For CC(=O)c1ccc(NC(=O)Nc2ccc([N+](=O)[O-])cc2C)cc1 , what call appears in the results of this test?
Reply | active

Ask | In this assay, the call recorded for Cc1cc([N+](=O)[O-])ccc1NC(=O)C1CCCO1 (stereo unspecified) was what?
Reply | inactive

Ask | Lab log entry: COc1ccc([N+](=O)[O-])cc1NC(=O)c1ccc(N(Cc2ccccc2C)S(C)(=O)=O)cc1 — outcome as called in the assay?
Reply | inactive

Ask | Please share the test call associated with Cc1cc([N+](=O)[O-])ccc1NC(=O)c1ccc(NC(=O)C(C)C)cc1 .
Reply | active

Entry source: PubChem BioAssay AID686978
